# IC50 listing for each entry below
System: fibrin-induced microglia activation
Test: Image-based assay of fibrin-induced microglia activation (HTS and dose response)
Assay type: cell-based, rat
Conditions: Rattus norvegicus, Microglia, Table 7; read-out: fib_IC50
Give the quantity in µM, number only.

MOLECULE	EXPERIMENTAL TARGET	VALUE OBSERVED
C[C@@H]1C[C@H]2[C@@H]3CCC4=CC(=O)C=C[C@]4(C)[C@@]3(F)[C@@H](O)C[C@]2(C)[C@@]1(O)C(=O)CO [Dexamethasone, reference compound]	fibrin-induced microglia activation	0.002
O=C(O)c1nc2cc(Cl)c(Cl)cc2nc1O	fibrin-induced microglia activation	2.65
C[C@H]1C[C@H]2[C@@H]3CCC4=CC(=O)C=C[C@]4(C)[C@@]3(F)[C@@H](O)C[C@]2(C)[C@@]1(O)C(=O)CO [Betamethasone, reference compound]	fibrin-induced microglia activation	0.002

Item CC1(C)O[C@@H]2C[C@H]3[C@@H]4C[C@H](F)C5=CC(=O)C=C[C@]5(C)[C@@]4(F)[C@@H](O)C[C@]3(C)[C@]2(C(=O)CO)O1 [Fluocinolone acetonide, reference compound] : provide IC50
0.002

Item CC(C)=CCc1c2c(c3occ(-c4ccc(O)c(O)c4)c(=O)c3c1O)C=CC(C)(C)O2 [pomiferin] : provide IC50
0.251

Item Cn1nnnc1SCC1=C(C(=O)O)N2C(=O)[C@@H](NC(=O)[C@H](O)c3ccccc3)[C@H]2SC1 [cefamandole sodium] : provide IC50
0.052
